# procedure_text: Preliminary in-vivo experiment, constituents in urine (GC)
# condition: male, Sprague-Dawley, rat, in vivo, 7.5 % lavender essential oil in almond oil; collected urine sample; 84 h after the simulated massage
endpoint_label: concentration at 84 h (ng/mL)

>  <molecule>
C=CC(C)(CCC=C(C)C)OC(C)=O (stereo not shown) [Linalyl acetate]

>  <value_measured>
9.03

$$$$

---

# procedure_text: Extraction of lavender essential oil constituents from the skin after patch application
# Assay type: in vivo
# condition: male, Sprague-Dawley, rat, in vivo, 7.5 % lavender oil in patch; skin under 7.5% lavender oil patch, removed after 60 h; ethanol extract; read-out: Concentration extracted from the skin

>  <molecule>
C=CC(C)(CCC=C(C)C)OC(C)=O (stereo not shown) [Linalyl acetate]

>  <reading_unit>
ng/mL

>  <concentration at 60 h>
241

$$$$

The reported measurements were obtained from patent US20110300198A1.
